Dear all, this message contains pKi results, target or system UniProt P43116.
The value called pKi is obtained by taking minus log10 of the concentration in mol/L.

Form field, pKi with UniProt P43116, item CC(C)CC(O)CCN1CCC(=O)N1CCc1ccc(C(=O)O)cc1 (stereo not shown) [Example 12] : 5.36

Form field, pKi with UniProt P43116, item CCC1(C(O)CCCN2CCC(=O)N2CCc2ccc(C(=O)O)cc2)CCC1 (stereo not shown) [Example 19] : 6.12

Form field, pKi with UniProt P43116, item O=C(O)c1ccc(CCN2C(=O)CCN2CCC(O)Cc2cccc(F)c2)cc1 (stereo not shown) [Example 25] : 5.20

Form field, pKi with UniProt P43116, item CCCCCC(O)CCCN1CCC(=O)N1CCc1ccc(C(=O)O)cc1 (stereo not shown) [Example 3] : 5.61

Form field, pKi with UniProt P43116, item CCCC(C)C(O)CCCN1CCC(=O)N1CCc1ccc(C(=O)O)cc1 (stereo not shown) [Example 8] : 5.29

----------
target or test system: HEK293-EBNA cells transfected with pCEP4-hEP2 receptors (Homo sapiens, UniProt P43116)
test description: EP2 cAMP assay
assay context: total cAMP, 1 hour 37° C.
test readout: EC50 (µM)
Write down the numeric answer in µM and omit the unit.

compound | result number
CCCC(C)(O)CCCN1CCC(=O)N1CCc1ccc(C(=O)O)cc1 (centres unmarked) [Example 10] | 5.3
CCCCCC(O)CCCN1CCC(=O)N1CCc1ccc(C(=O)O)cc1 (stereo in doubt) [Example 14] | 0.566
O=C(O)c1ccc(CCN2C(=O)CCN2CCC(O)Cc2cccc(C(F)(F)F)c2)cc1 (centres unmarked) [Example 26] | 17.6
CC(C)CC(O)CCN1CCC(=O)N1CCc1ccc(C(=O)O)cc1 (centres unmarked) [Example 12] | 15

Now consider a different compound.
EC50 measured on CC(C)CC(O)CCCN1CCC(=O)N1CCc1ccc(C(=O)O)cc1 (centres unmarked) [Example 7] = 9.7

----------
target or test system: HEK293-EBNA cells transfected with pCEP4-hEP2 receptors (Homo sapiens, UniProt P43116)
test description: EP2 cAMP assay
assay context: total cAMP, 1 hour 37° C.
test readout: pEC50
The value called pEC50 is obtained by taking minus log10 of the concentration in mol/L.

Study these solved cases before continuing.
compound | result number
CCCCCC(O)CCCN1CCC(=O)N1CCc1ccc(C(=O)O)cc1 (stereo not drawn) [Example 3] | 5.89
CCCCCC(C)(O)CCCN1CCC(=O)N1CCc1ccc(C(=O)O)cc1 (stereo not drawn) [Example 16] | 5.80
CCCCCC(O)/C=C/CN1CCC(=O)N1CCc1ccc(C(=O)O)cc1 (stereo not drawn) [Example 5] | 4.90
CC(C)CCC(C)(O)CCCN1CCC(=O)N1CCc1ccc(C(=O)O)cc1 (stereo not drawn) [Example 11] | 5.00

Now consider a different compound.
pEC50 measured on O=C(O)c1ccc(CCN2C(=O)CCN2CCCC(O)C2(CC3CC3)CCC2)cc1 (stereo not drawn) [Example 18] = 6.24

----------
target or test system: EP2 receptor (Homo sapiens, UniProt P43116)
Sequence (P43116 whole entry): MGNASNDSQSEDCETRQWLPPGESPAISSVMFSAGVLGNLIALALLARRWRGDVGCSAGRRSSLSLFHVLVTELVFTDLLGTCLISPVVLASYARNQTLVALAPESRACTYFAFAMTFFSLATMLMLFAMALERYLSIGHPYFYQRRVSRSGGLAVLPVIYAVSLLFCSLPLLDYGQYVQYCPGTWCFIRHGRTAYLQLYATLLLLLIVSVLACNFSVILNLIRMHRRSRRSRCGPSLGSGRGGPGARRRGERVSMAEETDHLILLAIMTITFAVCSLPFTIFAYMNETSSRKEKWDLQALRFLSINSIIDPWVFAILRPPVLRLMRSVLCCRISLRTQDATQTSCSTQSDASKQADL
pKi: −log10 of the molar value.
Record condition met whenever pKi is at 5 or higher; record condition not met when lower.

molecule | target or test system | category
CCCCCC(O)CCCN1CCC(=O)N1CCc1ccc(C(=O)O)cc1 (stereo in doubt) [Example 14] | EP2 receptor (Homo sapiens, UniProt P43116) | condition met
O=C(O)c1ccc(CCN2C(=O)CCN2CCC(O)Cc2cccc(OC(F)(F)F)c2)cc1 (centres unmarked) | EP2 receptor (Homo sapiens, UniProt P43116) | condition met
CCCCCC(O)/C=C/CN1CCC(=O)N1CCc1ccc(C(=O)O)cc1 (centres unmarked) | EP2 receptor (Homo sapiens, UniProt P43116) | condition not met

## Task Could you verify whether the entry CCCCCC(O)C#CCN1CCC(=O)N1CCc1ccc(C(=O)O)cc1 (centres unmarked) shows pKi of no less than 5?
## Result condition not met

## Task Could you verify whether the entry CCCCCC(O)/C=C\CN1CCC(=O)N1CCc1ccc(C(=O)O)cc1 (centres unmarked) shows pKi of no less than 5?
## Result condition not met

## Task Could you verify whether the entry CC(C)CCC(C)(O)CCCN1CCC(=O)N1CCc1ccc(C(=O)O)cc1 (centres unmarked) shows pKi of no less than 5?
## Result condition not met

## Task Could you verify whether the entry O=C(O)c1ccc(CCN2C(=O)CCN2CCC(O)Cc2cccc(Cl)c2)cc1 (centres unmarked) shows pKi of no less than 5?
## Result condition met

## Task Could you verify whether the entry CCCCCC(C)(O)CCCN1CCC(=O)N1CCc1ccc(C(=O)O)cc1 (centres unmarked) shows pKi of no less than 5?
## Result condition met
